Target: human progesterone receptor-A [PRA] isoform (Homo sapiens)
Construct: host or cells: insect SF21 cells (baculovirus)
Sequence (P06401 1-769 isoform P06401-2): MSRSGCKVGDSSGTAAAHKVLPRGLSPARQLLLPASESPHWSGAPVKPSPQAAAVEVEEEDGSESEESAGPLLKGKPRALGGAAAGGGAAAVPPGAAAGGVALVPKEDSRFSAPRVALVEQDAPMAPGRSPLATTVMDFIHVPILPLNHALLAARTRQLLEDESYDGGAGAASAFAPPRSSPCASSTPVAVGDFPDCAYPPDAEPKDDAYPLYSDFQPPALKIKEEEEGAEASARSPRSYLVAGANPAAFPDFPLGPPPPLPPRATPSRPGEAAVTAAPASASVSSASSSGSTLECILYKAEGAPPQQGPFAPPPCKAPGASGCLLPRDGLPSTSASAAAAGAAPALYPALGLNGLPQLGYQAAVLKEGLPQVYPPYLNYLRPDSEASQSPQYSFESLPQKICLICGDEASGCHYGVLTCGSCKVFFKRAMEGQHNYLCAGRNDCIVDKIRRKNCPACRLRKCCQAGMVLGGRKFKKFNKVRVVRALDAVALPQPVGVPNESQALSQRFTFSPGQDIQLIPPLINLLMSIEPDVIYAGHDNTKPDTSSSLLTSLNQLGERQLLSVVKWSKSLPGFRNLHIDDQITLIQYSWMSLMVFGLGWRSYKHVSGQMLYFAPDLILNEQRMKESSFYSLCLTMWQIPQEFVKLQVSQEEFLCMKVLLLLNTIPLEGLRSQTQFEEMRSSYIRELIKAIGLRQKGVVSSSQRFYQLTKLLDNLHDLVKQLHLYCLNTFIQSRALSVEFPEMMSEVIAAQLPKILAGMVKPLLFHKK
Test: Radioligand binding with human progesterone receptor cytosol ([3H]-progesterone competition)
Conditions: PRA cytosol expressed in insect SF21 cells, [3H]Prog ~0.8 nM, 4° C. overnight; Ki by Cheng-Prusoff, KL ~4.5 nM; read-out: Ki (nM) PR
READOUT_LABEL: Ki (nM)

molecule="COc1ccc(C2Oc3cccc(OC)c3-c3ccc4c(c32)C(C)=CC(C)(C)N4)cc1 (stereo not drawn)" tested_target="human progesterone receptor-A [PRA] isoform (Homo sapiens)" measurement_unit=nM bound_operator=≥ recorded_result=10000
molecule="COc1cccc2c1-c1ccc3c(c1C(CC(=O)N(C)C)O2)C(C)=CC(C)(C)N3 (stereo not drawn)" tested_target="human progesterone receptor-A [PRA] isoform (Homo sapiens)" measurement_unit=nM bound_operator=≥ recorded_result=10000
molecule="COc1cccc2c1-c1ccc3c(c1C(c1cccc(NCc4ccccc4)c1)O2)C(C)=CC(C)(C)N3 (stereo not drawn)" tested_target="human progesterone receptor-A [PRA] isoform (Homo sapiens)" measurement_unit=nM bound_operator=≥ recorded_result=10000
molecule="COc1cccc2c1-c1ccc3c(c1[C@@H](C1CCCOC1=O)O2)C(C)=CC(C)(C)N3 (stereo in doubt)" tested_target="human progesterone receptor-A [PRA] isoform (Homo sapiens)" measurement_unit=nM bound_operator=≥ recorded_result=10000
molecule="COc1cccc2c1-c1ccc3c(c1C(CC1=CCCCC1)O2)C(C)=CC(C)(C)N3 (stereo not drawn)" tested_target="human progesterone receptor-A [PRA] isoform (Homo sapiens)" measurement_unit=nM bound_operator=≥ recorded_result=10000
molecule="C=CCC1Oc2cccc(OC)c2-c2ccc3c(c21)C(C)=C(C)C(C)(C)N3 (stereo not drawn)" tested_target="human progesterone receptor-A [PRA] isoform (Homo sapiens)" measurement_unit=nM bound_operator== recorded_result=3370
molecule="C=CCC1Oc2c(Br)cc(O)c(Cl)c2-c2ccc3c(c21)C(C)=CC(C)(C)N3 (stereo not drawn)" tested_target="human progesterone receptor-A [PRA] isoform (Homo sapiens)" measurement_unit=nM bound_operator== recorded_result=22.8
molecule="C=C(C)CC1Oc2ccc(O)c(OC)c2-c2ccc3c(c21)C(C)=CC(C)(C)N3 (stereo not drawn)" tested_target="human progesterone receptor-A [PRA] isoform (Homo sapiens)" measurement_unit=nM bound_operator== recorded_result=260
molecule="COc1c(OC(=O)CCC(=O)N(C)C)ccc2c1-c1ccc3c(c1C(Cc1ccccc1)O2)C(C)=CC(C)(C)N3 (stereo not drawn)" tested_target="human progesterone receptor-A [PRA] isoform (Homo sapiens)" measurement_unit=nM bound_operator== recorded_result=1950
